# credit: ChEMBL document CHEMBL2069259

Some compounds, each annotated with its measured IC50 shift at 0.5 h.
- tested_system: CYP3A4 (Homo sapiens, UniProt P08684)
- Sequence (P08684 whole entry): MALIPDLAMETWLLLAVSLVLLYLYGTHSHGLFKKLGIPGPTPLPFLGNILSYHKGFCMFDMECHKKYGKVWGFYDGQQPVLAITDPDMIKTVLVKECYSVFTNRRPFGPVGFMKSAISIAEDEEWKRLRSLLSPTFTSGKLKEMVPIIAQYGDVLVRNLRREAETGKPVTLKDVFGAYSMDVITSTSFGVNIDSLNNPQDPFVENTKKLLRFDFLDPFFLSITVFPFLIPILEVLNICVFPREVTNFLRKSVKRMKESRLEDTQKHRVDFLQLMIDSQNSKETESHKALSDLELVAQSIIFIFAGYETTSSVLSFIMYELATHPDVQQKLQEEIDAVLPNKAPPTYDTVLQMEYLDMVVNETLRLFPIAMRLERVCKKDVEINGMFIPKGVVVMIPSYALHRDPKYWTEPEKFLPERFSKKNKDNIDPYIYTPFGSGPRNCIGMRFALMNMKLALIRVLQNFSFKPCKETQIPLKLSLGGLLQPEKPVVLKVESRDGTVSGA
- assay_text: Inhibition of human CYP3A4 assessed as ratio of IC50 in absence of NADPH to IC50 for presence of NADPH using diethoxyfluorescein as substrate after 30 mins
The reply should be a number, written without any unit.

Cc1c(C)c2c(c(C)c1O)CCC(C)(COc1ccc(CC3SC(=O)NC3=O)cc1)O2 (stereo not given)    2
CS(=O)(=O)Nc1ccc([N+](=O)[O-])cc1Oc1ccccc1 [NIMESULIDE]    2

Now for a further compound.
Request: Query for CYP3A4 (Homo sapiens, UniProt P08684): what IC50 shift at 0.5 h does the record show for COc1ccc2[nH]c([S+]([O-])Cc3ncc(C)c(OC)c3C)nc2c1 (stereo not given) ?
Result: 2

====

- tested_system: CYP2D6 (Homo sapiens, UniProt P10635)
- Sequence (P10635 whole entry): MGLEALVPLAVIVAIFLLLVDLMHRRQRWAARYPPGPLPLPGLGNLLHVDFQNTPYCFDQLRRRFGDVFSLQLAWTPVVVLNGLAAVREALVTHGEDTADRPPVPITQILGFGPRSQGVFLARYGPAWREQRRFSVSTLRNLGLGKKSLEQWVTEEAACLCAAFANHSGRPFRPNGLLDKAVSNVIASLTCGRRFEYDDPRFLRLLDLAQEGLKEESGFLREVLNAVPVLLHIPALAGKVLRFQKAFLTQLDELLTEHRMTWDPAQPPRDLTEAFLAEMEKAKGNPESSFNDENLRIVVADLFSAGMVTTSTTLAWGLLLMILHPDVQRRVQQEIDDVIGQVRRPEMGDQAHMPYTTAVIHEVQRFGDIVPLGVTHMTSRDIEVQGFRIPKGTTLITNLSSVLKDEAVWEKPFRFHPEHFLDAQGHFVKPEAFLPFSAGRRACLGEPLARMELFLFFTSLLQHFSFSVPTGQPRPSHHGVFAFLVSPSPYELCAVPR
- assay_text: Inhibition of human CYP2D6 assessed as ratio of IC50 in absence of NADPH to IC50 for presence of NADPH using 4-methylaminoethyl-7-methoxycoumarin as substrate after 30 mins
Listed here: items and their measured IC50 shift at 0.5 h.

CC(C)C(=O)Nc1ccc([N+](=O)[O-])c(C(F)(F)F)c1 [FLUTAMIDE]    < 2
CC(C)OC(=O)C(C)(C)Oc1ccc(C(=O)c2ccc(Cl)cc2)cc1 [FENOFIBRATE]    2
NNC(=O)c1ccncc1    > 5
NNCCc1ccccc1    > 5
CCOC(=O)n1ccn(C)c1=S    > 5

Continue with the molecule presented below.
Request: Using the record for Clc1ccccc1C(c1ccccc1)(c1ccccc1)n1ccnc1 , report its IC50 shift at 0.5 h.
Result: < 2

====

- tested_system: CYP3A4 (Homo sapiens, UniProt P08684)
- assay_text: Inhibition of human CYP3A4 assessed as ratio of IC50 in absence of NADPH to IC50 for presence of NADPH using diethoxyfluorescein as substrate after 30 mins
- test_conditions: probe diethoxyfluorescein
quantity_kind: IC50 shift at 0.5 h

Known results for compounds:
C[C@]12CC[C@@H]3c4ccc(O)cc4CC[C@H]3[C@@H]1CC[C@@H]2O    < 2
C#C[C@]1(O)CC[C@H]2[C@@H]3CCc4cc(OC)ccc4[C@H]3CC[C@@]21C    > 5
Cc1ccnc2c1NC(=O)c1cccnc1N2C1CC1    2
CC(C)NNC(=O)c1ccncc1    > 5
CC[C@H]1OC(=O)[C@H](C)[C@@H](O[C@H]2C[C@@](C)(OC)[C@@H](O)[C@H](C)O2)[C@H](C)[C@@H](O[C@@H]2O[C@H](C)C[C@H](N(C)C)[C@H]2O)[C@](C)(OC)C[C@@H](C)C(=O)[C@H](C)[C@@H](O)[C@]1(C)O    > 5

Request: What value of IC50 shift at 0.5 h has been reported for the following compound? CC1=C(/C=C/C(C)=C/C=C/C(C)=C/C(=O)O)C(C)(C)CCC1
Result: 2

====

- System: Liver microsomes
- assay_text: Metabolic stability in human liver microsomes assessed as GSH adduct formation at 100 uM after 90 mins by HPLC-MS analysis
- test_conditions: 1.5 h
quantity_kind: Stability

O=C1CCc2cc(OCCCCc3nnnn3C3CCCCC3)ccc2N1    Stable
CC(=O)[C@H]1CC[C@H]2[C@@H]3CCC4=CC(=O)CC[C@]4(C)[C@H]3CC[C@]12C    Stable
O=C(O)c1cc(/N=N/c2ccc(S(=O)(=O)Nc3ccccn3)cc2)ccc1O    Stable
CN1CCC[C@@H]1CCO[C@](C)(c1ccccc1)c1ccc(Cl)cc1    Stable
